Target: DNA-PK phosphorylation at serine 2056 (Homo sapiens (Human), UniProt P78527)
Assay: DNA-PK phosphorylation at serine 2056 (cellular), bleomycin-treated HCT116 cells, ELISA
Type: cell-based
Conditions: Table 7; HCT116 cells; read-out: IC50 pDNA-PK
Procedure: HCT116 cells were cultivated at 37° C. and 10% CO2 in MEM alpha medium with 10% of foetal calf serum and 2 mM glutamine. The cells were detached from the base of the culture vessels with the aid of trypsin/EDTA, centrifuged off in centrifuge tubes, taken up in fresh medium, and the cell density was determined. […] The development of the enzymatic reaction was carried out with the aid of a chemiluminescent reagent, the chemiluminescence was measured with the aid of a Mithras LB940. […]
Readout label: IC50

Compound: OC(c1ccccn1)c1cc(-c2ncnc3cc(N4CCOCC4)ccc23)c(F)cc1F (centres unmarked) [Example 218]
IC50: < 500 nM

Compound: Cn1nc(C(O)c2cc(-c3ncnc4cc(N5CCOCC5)ccc34)c(F)cc2F)ccc1=O (centres unmarked) [Example 219]
IC50: 500 to 5000 nM

Compound: OC(c1cn2ccnc2cn1)c1cc(-c2ncnc3cc(N4CCOCC4)ccc23)c(F)cc1F (centres unmarked) [Example 223]
IC50: 500 to 5000 nM

Compound: OC(c1cccnc1)c1cc(-c2ncnc3cc(N4CCOCC4)ccc23)c(F)cc1F (centres unmarked) [Example 217]
IC50: < 500 nM

Compound: Cn1nc(C(O)c2ccc(F)c(-c3ncnc4cc(N5CCOCC5)ccc34)c2F)ccc1=O (centres unmarked) [Example 220]
IC50: 5000 to 10000 nM

Compound: COc1ccc(C(O)c2cc(-c3ncnc4cc(N5CCOCC5)ccc34)c(F)cc2F)nc1 (centres unmarked) [Example 224]
IC50: 500 to 5000 nM

Problem: Quick one: IC50 of OC(c1ccc2ncnn2c1)c1cc(-c2ncnc3cc(N4CCOCC4)ccc23)c(F)cc1F (centres unmarked) [Example 222] ?
Solution: 500 to 5000 nM

Problem: Quick one: IC50 of COc1ccc(C(O)c2cc(-c3ncnc4cc(N5CCOCC5)ccc34)c(F)cc2F)cn1 (centres unmarked) [Example 221] ?
Solution: 500 to 5000 nM
